Assay: Therapeutic index (TI) determined as IC50 of vero cells to that of EC50
Type: cell-based
Conditions: plasmodium falciparum, read-out: TI
Kindly supply the reported selectivity ratio values for the records listed here.
Give bare numbers.

Recorded selectivity ratio, per entry:
- COMPOUND: "C[C@@H]1CC[C@H]2[C@H](Cc3ccc(F)cc3)C(=O)O[C@@H]3O[C@]4(C)CC[C@@H]1[C@]32OO4"
  NUMERIC_VALUE: 9.3
- COMPOUND: "CC1CCC2C(CC3(Cc4ccc(F)cc4)C(=O)OC4OC5(C)CCC6C(C)CCC3C46OO5)C(=O)OC3OC4(C)CCC1C32OO4 (stereo unspecified)"
  NUMERIC_VALUE: 4.8

Attention now shifts to the item below.
Check the records and state selectivity ratio for C[C@@H]1CC[C@H]2[C@@H](CCCCc3ccccc3)C(=O)O[C@@H]3O[C@]4(C)CC[C@@H]1[C@]32OO4
1.9
